Tested on: UO-31
Test: NCI60 one-dose screen
Format: cell-based
Details: Homo sapiens, UO-31, read-out: Growth percent
quantity-kind: activity at 10 µM (%)
Record the value in %, omitting the unit from your answer.

Prompt: # input compound: CCC12C=CCN3CCC4(c5ccc(OC)cc5N(C)C4C(O)(C(=O)OC)C1OC(=O)CCC[P+](c1ccc(C)cc1)(c1ccc(C)cc1)c1ccc(C)cc1)C32 (stereo not drawn) ; wanted: its activity at 10 µM
Completion: -97.4

Prompt: Same lookup for CC[C@]12C=CCN3CC[C@@]4(c5ccc(OC)cc5N(C)[C@H]4[C@@](O)(C(=O)OC)[C@@H]1OC(=O)CCCC[P+](c1ccc(C)cc1)(c1ccc(C)cc1)c1ccc(C)cc1)[C@@H]32 [10a] , please.
Completion: -96

Prompt: Further, for `CC[C@]12C=CCN3CC[C@@]4(c5ccc(OC)cc5N(C)[C@H]4[C@@](O)(C(=O)OC)[C@@H]1OC(=O)CCC[P+](C1CCCCC1)(C1CCCCC1)C1CCCCC1)[C@@H]32` ?
Completion: 76.8

====

System: RXF 393
Experiment: NCI60 one-dose screen
Assay type: cell-based
Conditions: Homo sapiens, RXF 393, read-out: Growth percent
quantity-kind: activity at 10 µM (%)
Please give a number only; it is taken to be in %.

# count of solved cases: 4
- molecule: "CCC12C=CCN3CC[C@@]4(c5ccc(OC)cc5N(C)[C@H]4[C@@](O)(C(=O)OC)[C@@H]1OC(C)=O)[C@@H]32 (some centres unmarked)"
  measured-value: 104
- molecule: "CC[C@]12C=CCN3CC[C@@]4(c5ccc(OC)cc5N(C)[C@H]4[C@@](O)(C(=O)OC)[C@@H]1OC(=O)CCCC[P+](C1CCCCC1)(C1CCCCC1)C1CCCCC1)[C@@H]32 [10d]"
  measured-value: -73.8
- molecule: "CC[C@]12C=CCN3CC[C@@]4(c5ccc(OC)cc5N(C)[C@H]4[C@@](O)(C(=O)OC)[C@@H]1OC(=O)CCCC[P+](c1ccc(OC)cc1)(c1ccc(OC)cc1)c1ccc(OC)cc1)[C@@H]32 [10b]"
  measured-value: -90.4
- molecule: "CC[C@]12C=CCN3CC[C@@]4(c5ccc(OC)cc5N(C)[C@H]4[C@@](O)(C(=O)OC)[C@@H]1OC(=O)CCC[P+](c1ccc(F)cc1)(c1ccc(F)cc1)c1ccc(F)cc1)[C@@H]32"
  measured-value: -10.4

Shifting focus to the molecule that follows.
Prompt: What value of activity at 10 µM has been reported for the following molecule? `CC[C@]12C=CCN3CC[C@@]4(c5ccc(OC)cc5N(C)[C@H]4[C@@](O)(C(=O)OC)[C@@H]1OC(=O)CCC[P+](c1ccccc1)(c1ccccc1)c1ccccc1OC)[C@@H]32`
Completion: -83.6

====

Test system: RPMI-8226
Test: NCI60 one-dose screen
Type: cell-based
Settings: Homo sapiens, RPMI-8226, read-out: Growth percent
quantity-kind: activity at 10 µM

- compound: "CC[C@]12C=CCN3CC[C@@]4(c5ccc(OC)cc5N(C)[C@H]4[C@@](O)(C(=O)OC)[C@@H]1OC(=O)CCC[P+](C1CCCCC1)(C1CCCCC1)C1CCCCC1)[C@@H]32"
  activity at 10 µM: "-43.5%"

Prompt: Quick one: activity at 10 µM of CCC12C=CCN3CCC4(c5ccc(OC)cc5N(C)C4C(O)(C(=O)OC)C1OC(=O)CCC[P+](c1ccc(C)cc1)(c1ccc(C)cc1)c1ccc(C)cc1)C32 (stereo not shown) ?
Completion: -56.3%

Prompt: Subsequent entry: `CC[C@]12C=CCN3CC[C@@]4(c5ccc(OC)cc5N(C)[C@H]4[C@@](O)(C(=O)OC)[C@@H]1OC(=O)CCC[P+](c1ccc(F)cc1)(c1ccc(F)cc1)c1ccc(F)cc1)[C@@H]32`
Completion: 24.4%

Prompt: Now give it for `CC[C@]12C=CCN3CC[C@@]4(c5ccc(OC)cc5N(C)[C@H]4[C@@](O)(C(=O)OC)[C@@H]1OC(=O)CCC[P+](c1ccccc1)(c1ccccc1)c1ccccc1OC)[C@@H]32` too.
Completion: -38%

====

Below, each entry is listed alongside its reported activity at 10 µM.
Test system: A498
Assay: NCI60 one-dose screen
Assay type: cell-based
Conditions: Homo sapiens; A498, 10 μM, one-dose; read-out: Growth percent
The answer is to be given in %; state only the numeric part.

Worked cases, answers included:
- compound: "CC[C@]12C=CCN3CC[C@@]4(c5ccc(OC)cc5N(C)[C@H]4[C@@](O)(C(=O)OC)[C@@H]1OC(=O)CCC[P+](c1cc(C)c(OC)c(C)c1)(c1cc(C)c(OC)c(C)c1)c1cc(C)c(OC)c(C)c1)[C@@H]32"
  subject-of-test: "A498"
  measured-value: -98.9
- compound: "CCC12C=CCN3CCC4(c5ccc(OC)cc5N(C)C4C(O)(C(=O)OC)C1OC(=O)c1ccc(C[P+](c4ccccc4)(c4ccccc4)c4ccccc4)cc1)C32 (centres unmarked)"
  subject-of-test: "A498"
  measured-value: 70.2
- compound: "CC[C@]12C=CCN3CC[C@@]4(c5ccc(OC)cc5N(C)[C@H]4[C@@](O)(C(=O)OC)[C@@H]1OC(=O)CCC[P+](c1ccccc1)(c1ccccc1)c1ccccc1)[C@@H]32 [compound 3, reference compound]"
  subject-of-test: "A498"
  measured-value: 124
- compound: "CC[C@]12C=CCN3CC[C@@]4(c5ccc(OC)cc5N(C)[C@H]4[C@@](O)(C(=O)OC)[C@@H]1OC(=O)CCCC[P+](c1ccc(F)cc1)(c1ccc(F)cc1)c1ccc(F)cc1)[C@@H]32 [10c]"
  subject-of-test: "A498"
  measured-value: 99.2

Read the next record carefully.
Prompt: Form: Entry = `CC[C@]12C=CCN3CC[C@@]4(c5ccc(OC)cc5N(C)[C@H]4[C@@](O)(C(=O)OC)[C@@H]1OC(=O)CCC[P+](c1ccc(OC)cc1)(c1ccc(OC)cc1)c1ccc(OC)cc1)[C@@H]32` | System = A498 | activity at 10 µM = ____
Completion: -83.2

====

Test system: HS 578T
Experiment: NCI60 one-dose screen
Format: cell-based
Details: Homo sapiens; HS 578T, 10 μM, one-dose; read-out: Growth percent
The reader will find reported activity at 10 µM values listed item by item below.
The reply should contain only the number, in %.

Prompt: Give the measured activity at 10 µM of `CC[C@]12C=CCN3CC[C@@]4(c5ccc(OC)cc5N(C)[C@H]4[C@@](O)(C(=O)OC)[C@@H]1OC(=O)CCC[P+](c1ccc(OC)cc1)(c1ccc(OC)cc1)c1ccc(OC)cc1)[C@@H]32` .
Completion: -65.4

Prompt: Same again, this time with `CC[C@]12C=CCN3CC[C@@]4(c5ccc(OC)cc5N(C)[C@H]4[C@@](O)(C(=O)OC)[C@@H]1OC(=O)CCC[P+](c1cc(C)c(OC)c(C)c1)(c1cc(C)c(OC)c(C)c1)c1cc(C)c(OC)c(C)c1)[C@@H]32`
Completion: -98.2

====

Test system: RXF 393
Assay: NCI60 one-dose screen
Type: cell-based
Conditions: Homo sapiens, RXF 393, read-out: Growth percent
quantity-kind: activity at 10 µM (%)
Write it as a number; the unit % goes unstated.

Reference set (3 entries):
- compound: "CC[C@]12C=CCN3CC[C@@]4(c5ccc(OC)cc5N(C)[C@H]4[C@@](O)(C(=O)OC)[C@@H]1OC(=O)CCCC[P+](c1ccc(C)cc1)(c1ccc(C)cc1)c1ccc(C)cc1)[C@@H]32 [10a]"
  quantity-kind: "activity at 10 µM"
  measured-value: -87.6
- compound: "CC[C@]12C=CCN3CC[C@@]4(c5ccc(OC)cc5N(C)[C@H]4[C@@](O)(C(=O)OC)[C@@H]1OC(=O)CCCC[P+](c1ccccc1)(c1ccccc1)c1ccccc1)[C@@H]32 [compound 4, reference compound]"
  quantity-kind: "activity at 10 µM"
  measured-value: -13.3
- compound: "CC[C@]12C=CCN3CC[C@@]4(c5ccc(OC)cc5N(C)[C@H]4[C@@](O)(C(=O)OC)[C@@H]1OC(=O)CCC[P+](C1CCCCC1)(C1CCCCC1)C1CCCCC1)[C@@H]32"
  quantity-kind: "activity at 10 µM"
  measured-value: -70.3

We next turn to a different compound, shown below.
Prompt: Can you look up the measured activity at 10 µM of CCC12C=CCN3CCC4(c5ccc(OC)cc5N(C)C4C(O)(C(=O)OC)C1OC(=O)CCC[P+](c1ccc(C)cc1)(c1ccc(C)cc1)c1ccc(C)cc1)C32 (stereo not shown) for me?
Completion: -82.8

====

Items are presented alongside their recorded GI50.
Tested on: Prostate Cancer panel
Test: NCI60 five-dose screen, panel mean
Assay type: cell-based
Details: Homo sapiens, read-out: Mean GI50
I only need the number, in µM, no unit after it.

Some entries whose results are on file:
- molecule: "CCC12C=CCN3CCC4(c5ccc(OC)cc5N(C)C4C(O)(C(=O)OC)C1OC(=O)CCC[P+](c1ccc(C)cc1)(c1ccc(C)cc1)c1ccc(C)cc1)C32 (stereo not shown) [9a]"
  subject-of-test: "Prostate Cancer panel"
  quantity-kind: "GI50"
  uom: "µM"
  measured-value: 0.38
- molecule: "CC[C@]12C=CCN3CC[C@@]4(c5ccc(OC)cc5N(C)[C@H]4[C@@](O)(C(=O)OC)[C@@H]1OC(=O)CCC[P+](C1CCCCC1)(C1CCCCC1)C1CCCCC1)[C@@H]32 [9d]"
  subject-of-test: "Prostate Cancer panel"
  quantity-kind: "GI50"
  uom: "µM"
  measured-value: 2.73
- molecule: "CC[C@]12C=CCN3CC[C@@]4(c5ccc(OC)cc5N(C)[C@H]4[C@@](O)(C(=O)OC)[C@@H]1OC(=O)CCC[P+](c1ccccc1)(c1ccccc1)c1ccccc1OC)[C@@H]32 [9f]"
  subject-of-test: "Prostate Cancer panel"
  quantity-kind: "GI50"
  uom: "µM"
  measured-value: 0.34

Now for the molecule whose GI50 we want.
Prompt: Could you tell me which GI50 is on file for CC[C@]12C=CCN3CC[C@@]4(c5ccc(OC)cc5N(C)[C@H]4[C@@](O)(C(=O)OC)[C@@H]1OC(=O)CCC[P+](c1ccc(F)cc1)(c1ccc(F)cc1)c1ccc(F)cc1)[C@@H]32 [9c] ?
Completion: 18.2
